# inhibition at 10 µM per record follows
testedSystem: LOX (Mus musculus)
Construct: Full length LOX cDNA was then PCR cloned into pEGFP-N1 (Clonetech), or biosensor vector proGFP2-N1; expressed in transfected cells; host or cells: MDCK cells grown as cysts on Matrigel, G418-selected
Sequence (P28301 163-411): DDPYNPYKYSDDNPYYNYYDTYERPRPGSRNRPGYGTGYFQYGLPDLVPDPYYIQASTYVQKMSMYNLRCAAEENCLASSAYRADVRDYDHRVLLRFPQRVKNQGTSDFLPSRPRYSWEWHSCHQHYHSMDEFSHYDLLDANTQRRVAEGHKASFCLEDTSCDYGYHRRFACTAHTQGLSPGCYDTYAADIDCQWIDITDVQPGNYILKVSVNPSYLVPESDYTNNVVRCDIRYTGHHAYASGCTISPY
assaySummary: LOX activity in cysts assay (LOX-roGFP2 biosensor, MDCK cysts)
Type: cell-based
conditionDetails: 10 uM; MDCK cysts; inhibitor added 30 min prior to imaging; DMSO = 0%, BAPN 1 mM = 100% inhibition; read-out: LOX biosensor inhibition (cyst) @ 10 uM
Entry rule: numbers only, all in %.

compound	inhibition at 10 µM, %
CCOc1ccc(N2C[C@H]3CN(C(=O)N(CCO)CCO)C[C@@H]2C(C)(C)C3)cc1	75

For CCOc1ccc(N2C[C@H]3CN(S(=O)(=O)N4CCOCC4)C[C@@H]2C(C)(C)C3)cc1 , write its inhibition at 10 µM.
93

For CC1(C)C[C@@H]2CN(C(=O)NCCO)C[C@H]1N(c1ccc(N3CCCCC3)cc1)C2 , write its inhibition at 10 µM.
90
